Reference for the values: ChEMBL document CHEMBL1955846

System: HCT-116
Assay: Cytotoxicity against human HCT116 cells after 3 days by CellTitre Glo assay
Type: functional, cell-based
Details: HCT-116, 72 h
pEC50: −log10 of the molar value.

smiles data | target system | pEC50
O=c1cc(-c2c[nH]c3ncccc23)nc(Nc2ccccc2)[nH]1 | HCT-116 | 6.35
O=c1cc(-c2c[nH]c3ncccc23)nc(NCc2ccccc2)[nH]1 | HCT-116 | 6.91
O=c1cc(-c2c[nH]c3ncccc23)nc(NC2CCCCC2)[nH]1 | HCT-116 | 6.99
COC1CCN(c2nc(-c3c[nH]c4ncccc34)cc(=O)[nH]2)CC1 | HCT-116 | 6.28
CN(c1nc(-c2c[nH]c3ncccc23)cc(=O)[nH]1)C1CCCCC1 | HCT-116 | 6.97
COCCN(CCOC)c1nc(-c2c[nH]c3ncccc23)cc(=O)[nH]1 | HCT-116 | 5.66

---

Target: CDC7/DBF4 (Cell division cycle 7-related protein kinase/Activator of S phase kinase) (Homo sapiens)
Sequence (Q9UBU7 whole entry): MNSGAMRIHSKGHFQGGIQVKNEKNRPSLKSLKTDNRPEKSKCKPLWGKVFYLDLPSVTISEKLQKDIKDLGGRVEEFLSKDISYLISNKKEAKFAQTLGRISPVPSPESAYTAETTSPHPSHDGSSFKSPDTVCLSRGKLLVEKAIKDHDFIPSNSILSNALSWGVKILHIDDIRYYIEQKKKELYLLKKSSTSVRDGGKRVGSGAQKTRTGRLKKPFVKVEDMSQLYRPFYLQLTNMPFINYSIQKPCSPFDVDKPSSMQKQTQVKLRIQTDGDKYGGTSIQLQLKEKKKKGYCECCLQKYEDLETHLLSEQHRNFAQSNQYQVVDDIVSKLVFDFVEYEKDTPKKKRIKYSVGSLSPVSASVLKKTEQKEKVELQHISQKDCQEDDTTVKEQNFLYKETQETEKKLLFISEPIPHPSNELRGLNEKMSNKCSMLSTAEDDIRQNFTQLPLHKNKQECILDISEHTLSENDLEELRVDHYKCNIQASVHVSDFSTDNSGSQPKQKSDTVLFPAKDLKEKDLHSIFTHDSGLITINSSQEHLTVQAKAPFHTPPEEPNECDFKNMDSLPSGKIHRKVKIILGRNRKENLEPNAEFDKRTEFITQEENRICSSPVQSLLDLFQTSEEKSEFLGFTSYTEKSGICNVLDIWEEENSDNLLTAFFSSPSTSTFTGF
Sequence (O00311 whole entry): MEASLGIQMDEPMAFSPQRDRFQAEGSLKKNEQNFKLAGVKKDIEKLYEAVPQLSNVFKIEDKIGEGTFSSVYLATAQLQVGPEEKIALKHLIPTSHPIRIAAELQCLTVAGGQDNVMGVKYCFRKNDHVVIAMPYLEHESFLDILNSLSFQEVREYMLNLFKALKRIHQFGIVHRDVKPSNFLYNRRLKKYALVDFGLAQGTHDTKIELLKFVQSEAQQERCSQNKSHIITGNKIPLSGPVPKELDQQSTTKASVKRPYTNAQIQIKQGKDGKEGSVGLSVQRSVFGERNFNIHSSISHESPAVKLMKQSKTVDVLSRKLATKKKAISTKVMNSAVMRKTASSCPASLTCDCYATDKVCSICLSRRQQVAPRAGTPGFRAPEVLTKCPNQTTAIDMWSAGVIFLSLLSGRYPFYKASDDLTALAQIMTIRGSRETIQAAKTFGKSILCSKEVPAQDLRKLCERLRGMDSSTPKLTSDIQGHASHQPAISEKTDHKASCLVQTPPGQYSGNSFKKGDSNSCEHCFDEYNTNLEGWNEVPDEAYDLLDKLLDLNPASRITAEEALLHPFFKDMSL
Quick reference: Ki of the listed items.

smiles data | reading qualifier | Ki (nM)
O=c1cc(-c2cccnc2)nc(NC2CCCCC2)[nH]1 | > | 1200
O=c1cc(-c2c[nH]c3ncccc23)nc(NC2CCCCC2)[nH]1 | < | 0.07
O=c1cc(-c2c[nH]c3ncccc23)nc(-c2ccccc2)[nH]1 | = | 0.25
O=c1cc(-c2c[nH]c3ncccc23)nc(N2CCOCC2)[nH]1 | = | 0.18
O=c1cc(-c2c[nH]c3ncccc23)cc(NC2CCCCC2)[nH]1 | = | 0.5
O=c1cc(-c2c[nH]c3ncccc23)nc(NC2CCOCC2)[nH]1 | = | 0.14
O=c1cc(-c2c[nH]c3ncccc23)nc(NCc2ccccc2)[nH]1 | < | 0.07
Nc1nccc(-c2cc(=O)[nH]c(NC3CCCCC3)n2)n1 | = | 5
O=c1cc(-c2cn[nH]c2)nc(NC2CCCCC2)[nH]1 | = | 15
O=c1nc(-c2c[nH]c3ncccc23)nc(NC2CCCCC2)[nH]1 | = | 0.3
CN(c1nc(-c2c[nH]c3ncccc23)cc(=O)[nH]1)C1CCCCC1 | = | 0.09
